tested on: SU-DHL-5; assay: Cell proliferation assay (6 days, CellTiter-Glo); type: cell-based; conditions: Homo sapiens, 144 h, DLBCL, EZH2 WT, read-out: AVERAGE GROWTH IC50
pIC50: −log10 of the molar value.
RECORDED METRIC: pIC50

- CC[C@H](C)n1cc(C)c2c(C(=O)NCc3c(C)cc(C)[nH]c3=O)cc(-c3ccc(N4CCNCC4)nc3)cc21: 5.64

###

test system: P3HR-1; assay: Cell proliferation assay (6 days, CellTiter-Glo); type: cell-based; settings: Homo sapiens, 144 h, BURKITT, EZH2 WT, read-out: AVERAGE GROWTH IC50
RECORDED METRIC: IC50 (µM)

- CC[C@H](C)n1cc(C)c2c(C(=O)NCc3c(C)cc(C)[nH]c3=O)cc(-c3ccc(N4CCNCC4)nc3)cc21 [GSK126]: 3.21

###

tested on: BC-1; assay: 6 day proliferation assay (assay 1); assay type: cell-based; conditions: Homo sapiens, BC1, 144 h, 6 days, EZH2 WT, read-out: Compound A gIC50
pIC50: −log10 of the molar value.
RECORDED METRIC: pIC50

- CCCc1cc(C)[nH]c(=O)c1CNC(=O)c1cc(-c2ccc(N3CCN(C)CC3)nc2)cc2c1cnn2C(C)C: 5.05

###

system: Jiyoye; assay: Cell proliferation assay (6 days, CellTiter-Glo); format: cell-based; settings: Homo sapiens, 144 h, JIYOYE, BURKITT, EZH2 WT, read-out: AVERAGE GROWTH IC50
pIC50: −log10 of the molar value.
RECORDED METRIC: pIC50

- CC[C@H](C)n1cc(C)c2c(C(=O)NCc3c(C)cc(C)[nH]c3=O)cc(-c3ccc(N4CCNCC4)nc3)cc21: 6.63

###

tested on: MHH-PREB-1; assay: Cell proliferation assay (6 days, CellTiter-Glo); assay type: cell-based; details: Homo sapiens, 144 h, B-NHL, EZH2 WT, read-out: AVERAGE GROWTH IC50
pIC50: −log10 of the molar value.
RECORDED METRIC: pIC50

• CC[C@H](C)n1cc(C)c2c(C(=O)NCc3c(C)cc(C)[nH]c3=O)cc(-c3ccc(N4CCNCC4)nc3)cc21 = 5.28

###

test system: SU-DHL-4; assay: Cell proliferation assay (6 days, CellTiter-Glo); type: cell-based; conditions: Homo sapiens, 144 h, DLBCL, EZH2 Y641S (HET), Y661N (HET), read-out: AVERAGE GROWTH IC50
RECORDED METRIC: IC50

• CC[C@H](C)n1cc(C)c2c(C(=O)NCc3c(C)cc(C)[nH]c3=O)cc(-c3ccc(N4CCNCC4)nc3)cc21 = 4.83 µM

###

tested on: RL; assay: Cell proliferation assay (6 days, CellTiter-Glo); format: cell-based; conditions: Homo sapiens, 144 h, DLBCL, EZH2 Y641N, D185H (HET), read-out: AVERAGE GROWTH IC50
RECORDED METRIC: IC50

• CC[C@H](C)n1cc(C)c2c(C(=O)NCc3c(C)cc(C)[nH]c3=O)cc(-c3ccc(N4CCNCC4)nc3)cc21 = 4.73 µM

###

test system: MJ; assay: 6 day proliferation assay (assay 1); type: cell-based; conditions: Homo sapiens, 144 h, 6 days, EZH2 WT, read-out: Compound A gIC50
pIC50: −log10 of the molar value.
RECORDED METRIC: pIC50

- CCCc1cc(C)[nH]c(=O)c1CNC(=O)c1cc(-c2ccc(N3CCN(C)CC3)nc2)cc2c1cnn2C(C)C: 5.48

###

Test system: Pfeiffer
Experiment: 6 day proliferation assay (assay 1)
Type: cell-based
Conditions: Homo sapiens, 144 h, 6 days, EZH2 A677G, read-out: Compound A gIC50
Procedure: Cells were cultured in appropriate medium in flasks to 80-100% confluency. Cells were harvested, counted and plated at a pre-determined optimal seeding density ranging from 50 cells per well to 4000 cells per well depending on the growth characteristics of individual cell lines in 384-well tissue culture plates (Greiner #781090). […] A time zero (t0) reading was taken on the day of compound addition. […] Luminescence was measured on the Tecan Safire2. Data were analyzed using Assay Client software. […]
pIC50: −log10 of the molar value.
RECORDED METRIC: pIC50

* CCCc1cc(C)[nH]c(=O)c1CNC(=O)c1cc(-c2ccc(N3CCN(C)CC3)nc2)cc2c1cnn2C(C)C | 6.72
